tgt: Tyrosyl-tRNA synthetase, putative (Trypanosoma cruzi (strain CL Brener)) (UniProt Q4DSP6)
Sequence (Q4DSP6 as listed by the source): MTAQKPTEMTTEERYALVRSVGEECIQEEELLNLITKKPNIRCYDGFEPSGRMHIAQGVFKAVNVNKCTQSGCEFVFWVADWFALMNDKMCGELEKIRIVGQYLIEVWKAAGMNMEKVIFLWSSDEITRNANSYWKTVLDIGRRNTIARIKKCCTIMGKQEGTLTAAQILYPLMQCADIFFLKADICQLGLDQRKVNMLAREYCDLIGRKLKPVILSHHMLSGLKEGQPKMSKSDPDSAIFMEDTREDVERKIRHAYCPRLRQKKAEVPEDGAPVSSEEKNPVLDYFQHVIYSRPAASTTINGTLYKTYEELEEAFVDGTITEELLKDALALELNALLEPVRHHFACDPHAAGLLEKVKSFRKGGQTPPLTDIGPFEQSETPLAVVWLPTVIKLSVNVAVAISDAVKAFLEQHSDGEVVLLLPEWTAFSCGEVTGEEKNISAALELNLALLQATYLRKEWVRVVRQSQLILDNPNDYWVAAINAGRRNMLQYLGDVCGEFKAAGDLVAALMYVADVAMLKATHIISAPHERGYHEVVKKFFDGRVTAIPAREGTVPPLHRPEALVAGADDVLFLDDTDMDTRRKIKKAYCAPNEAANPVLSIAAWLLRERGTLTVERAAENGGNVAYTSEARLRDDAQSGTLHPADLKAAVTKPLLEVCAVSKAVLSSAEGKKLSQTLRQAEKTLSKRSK
experimentNotes: Trypanosoma cruzi tyrosyl tRNA synthetase (TcYRS) SOP
Type: functional
Design: scale not given: direction of the effect not stated beside the values
reportedConditions: 30 µM
measurementKind: Percent Effect (%)

[[record]]
molecule = "CNC(=O)c1cccc(C2CNCCN2C(C)=O)c1 (configuration not stated)"
measurementkind = "Percent Effect"
readoutunit = "%"
obsvalue = 3.9

[[record]]
molecule = "OCCn1cc(CN2CCN(CCOc3ccccc3)CC2)cn1"
measurementkind = "Percent Effect"
readoutunit = "%"
obsvalue = 3.66

[[record]]
molecule = "CC(=O)NC1CCCN(C(=O)c2ccc(Br)cc2O)C1 (configuration not stated)"
measurementkind = "Percent Effect"
readoutunit = "%"
obsvalue = 16.1

[[record]]
molecule = "CCN1CCC2(CCC(=O)N2Cc2cccc(C)n2)CC1"
measurementkind = "Percent Effect"
readoutunit = "%"
obsvalue = 15

[[record]]
molecule = "O=C(CN1CCC(c2ccnn2CCO)CC1)NCC1CC1"
measurementkind = "Percent Effect"
readoutunit = "%"
obsvalue = 29.1

[[record]]
molecule = "CCC(=O)N1CCCC(c2cc(Nc3ncccn3)nc(C)n2)C1 (configuration not stated)"
measurementkind = "Percent Effect"
readoutunit = "%"
obsvalue = 11.7

[[record]]
molecule = "COc1ccc(CC(=O)NC2(C)CCS(=O)(=O)C2)cc1F (configuration not stated)"
measurementkind = "Percent Effect"
readoutunit = "%"
obsvalue = 12.8

[[record]]
molecule = "Cc1nn2cccnc2c1C(=O)N1CCCC(n2ccnc2)C1 (configuration not stated)"
measurementkind = "Percent Effect"
readoutunit = "%"
obsvalue = 12.8

[[record]]
molecule = "C[C@]1(O)CCN(Cc2cncs2)C[C@@H]1Oc1cccc(F)c1"
measurementkind = "Percent Effect"
readoutunit = "%"
obsvalue = 2.5

[[record]]
molecule = "Cn1ncc2c1C(COCC1CC1)CN(Cc1nccs1)C2 (configuration not stated)"
measurementkind = "Percent Effect"
readoutunit = "%"
obsvalue = 14.1

[[record]]
molecule = "CCC(=O)N1CCC2(CC1)COc1ccccc1S(=O)(=O)N(C)C2"
measurementkind = "Percent Effect"
readoutunit = "%"
obsvalue = 18.5

[[record]]
molecule = "Cc1nc(CN2CCCC(CCNS(C)(=O)=O)C2)c[nH]1 (configuration not stated)"
measurementkind = "Percent Effect"
readoutunit = "%"
obsvalue = 9.76

[[record]]
molecule = "Cc1nc(C)c(C(=O)OCCNc2ncccc2C#N)s1"
measurementkind = "Percent Effect"
readoutunit = "%"
obsvalue = 9.41

[[record]]
molecule = "CCN(C)c1ncnc2c1CCN(Cc1ccc(OC)cc1)CC2"
measurementkind = "Percent Effect"
readoutunit = "%"
obsvalue = 7.69

[[record]]
molecule = "CS(=O)(=O)N1CCC2(CC1)CC(CC(=O)NC1CC1)c1ccccc12 (configuration not stated)"
measurementkind = "Percent Effect"
readoutunit = "%"
obsvalue = 10.3

[[record]]
molecule = "CC(C)c1nnc2n1CCN(C(=O)c1cccc(C(F)(F)F)c1)C2"
measurementkind = "Percent Effect"
readoutunit = "%"
obsvalue = 15.4

[[record]]
molecule = "Cc1nc(C)n(CC2CCCN2Cc2cscn2)n1 (configuration not stated)"
measurementkind = "Percent Effect"
readoutunit = "%"
obsvalue = 11.8

[[record]]
molecule = "COCCCN1CCCN(C(C)c2nc(C3CC3)no2)CC1 (configuration not stated)"
measurementkind = "Percent Effect"
readoutunit = "%"
obsvalue = 15.8

[[record]]
molecule = "CC(C)NC(=O)CC1COC2(CCN(Cc3ccccc3)CC2)C1 (configuration not stated)"
measurementkind = "Percent Effect"
readoutunit = "%"
obsvalue = 10

[[record]]
molecule = "CCc1nc(CN2CCCN(C(=O)c3cn[nH]c3CC)CC2)cs1"
measurementkind = "Percent Effect"
readoutunit = "%"
obsvalue = 13.2

[[record]]
molecule = "O=C(Nc1cccnc1)[C@H]1C[C@H]2OCC[C@H]2N(C(=O)c2ccsc2)C1"
measurementkind = "Percent Effect"
readoutunit = "%"
obsvalue = 12.8

[[record]]
molecule = "CN(C)C(C(=O)N1CCCC1)c1ccccc1F (configuration not stated)"
measurementkind = "Percent Effect"
readoutunit = "%"
obsvalue = 2.56

[[record]]
molecule = "CC(O)CNC(=O)NCc1ccc(N2CCNC(=O)C2)cc1 (configuration not stated)"
measurementkind = "Percent Effect"
readoutunit = "%"
obsvalue = 21.9

[[record]]
molecule = "CC(Nc1cccc(CN2CCOC2=O)c1)C(=O)Nc1ccccc1F (configuration not stated)"
measurementkind = "Percent Effect"
readoutunit = "%"
obsvalue = 8.43

[[record]]
molecule = "COCC(=O)N(C)Cc1ccc(Cl)c(Cl)c1"
measurementkind = "Percent Effect"
readoutunit = "%"
obsvalue = 2.6

[[record]]
molecule = "COc1cccc2c1OCC(C(=O)N1CCN(S(C)(=O)=O)CC1)C2 (configuration not stated)"
measurementkind = "Percent Effect"
readoutunit = "%"
obsvalue = 17.1

[[record]]
molecule = "COc1ccc(F)cc1S(=O)(=O)NCC(c1cccn1C)N(C)C (configuration not stated)"
measurementkind = "Percent Effect"
readoutunit = "%"
obsvalue = 20

